Let's look at some substances and their measured Tm.
assay: melting temperature; UV melt of duplexes; settings: sodium 0.22 M; strand 2 µM

{"substance": "CTCAACTTGCGGTAAATAAATCGCTTAATC+GATTAAGCGATTTATTTACCGCAAGTTGAG ((((((((((((((((((((((((((((((+))))))))))))))))))))))))))))))", "Tm": "68.7 °C"}
{"substance": "ACAGCGAATGGACCTACGTGGCCTT+AAGGCCACGTAGGTCCATTCGCTGT (((((((((((((((((((((((((+)))))))))))))))))))))))))", "Tm": "76 °C"}
{"substance": "CGCCGCTGCCGACTGGAGGAGCGCGGGACG+CGTCCCGCGCTCCTCCAGTCGGCAGCGGCG ((((((((((((((((((((((((((((((+))))))))))))))))))))))))))))))", "Tm": "84.6 °C"}
{"substance": "AGTCTGGTCTGGATCTGAGAACTTCAGGCT+AGCCTGAAGTTCTCAGATCCAGACCAGACT ((((((((((((((((((((((((((((((+))))))))))))))))))))))))))))))", "Tm": "74.5 °C"}
{"substance": "CGGGACCAACTAAAGGAAAT+ATTTCCTTTAGTTGGTCCCG ((((((((((((((((((((+))))))))))))))))))))", "Tm": "61.7 °C"}
{"substance": "AATATCTCTCATGCGCCAAGCTACA+TGTAGCTTGGCGCATGAGAGATATT (((((((((((((((((((((((((+)))))))))))))))))))))))))", "Tm": "70.3 °C"}
{"substance": "ACGGGTCCCCGCACCGCACCGCCAG+CTGGCGGTGCGGTGCGGGGACCCGT (((((((((((((((((((((((((+)))))))))))))))))))))))))", "Tm": "84 °C"}
{"substance": "CGCGCCACGTGTGATCTACAGCCGTTCGGC+GCCGAACGGCTGTAGATCACACGTGGCGCG ((((((((((((((((((((((((((((((+))))))))))))))))))))))))))))))", "Tm": "79.5 °C"}
{"substance": "ATTGATATCCTTTTCTATTCATCTTTCATT+AATGAAAGATGAATAGAAAAGGATATCAAT ((((((((((((((((((((((((((((((+))))))))))))))))))))))))))))))", "Tm": "62.3 °C"}
{"substance": "TATTGAGAACAAGTGTCCGATTAGCAGAAA+TTTCTGCTAATCGGACACTTGTTCTCAATA ((((((((((((((((((((((((((((((+))))))))))))))))))))))))))))))", "Tm": "69.6 °C"}
{"substance": "GCCAACTCCGTCGCCGTTCGTGCGC+GCGCACGAACGGCGACGGAGTTGGC (((((((((((((((((((((((((+)))))))))))))))))))))))))", "Tm": "80.6 °C"}
{"substance": "AAGGCGAGTCAGGCTCAGTG+CACTGAGCCTGACTCGCCTT ((((((((((((((((((((+))))))))))))))))))))", "Tm": "71.4 °C"}
{"substance": "GCGAGCGACAGGTTACTTGGCTGAT+ATCAGCCAAGTAACCTGTCGCTCGC (((((((((((((((((((((((((+)))))))))))))))))))))))))", "Tm": "74.7 °C"}
{"substance": "TTCAAGTTAAACATTCTATC+GATAGAATGTTTAACTTGAA ((((((((((((((((((((+))))))))))))))))))))", "Tm": "53.9 °C"}
{"substance": "ATAACTTTACGTGTGTGACCTATTA+TAATAGGTCACACACGTAAAGTTAT (((((((((((((((((((((((((+)))))))))))))))))))))))))", "Tm": "64.7 °C"}

* * *

experiment: melting temperature; melt of duplexes; conditions: sodium 0.0675 M; strand 1 µM
Label True when Tm is strictly below 50 °C; otherwise label False.

{"substance": "CGACGTGCTTGATGTGCTG+CAGCACATGGAGCACGTCG (((((((((..((((((((+))))))))..)))))))))", "category-label": "False"}
{"substance": "CGACGTGCGTGATGTGCTG+CAGCACATGCCGCACGTCG (((((((((..((((((((+))))))))..)))))))))", "category-label": "False"}
{"substance": "CGACGTGCCCTATGTGCTG+CAGCACATGGGGCACGTCG ((((((((((.((((((((+)))))))).))))))))))", "category-label": "False"}
{"substance": "CGACGTGCTTGATGTGCTG+CAGCACATCTAGCACGTCG (((((((((.(((((((((+))))))))).)))))))))", "category-label": "False"}
{"substance": "CGACGTGCAGTATGTGCTG+CAGCACATTCGGCACGTCG ((((((((.(.((((((((+)))))))).).))))))))", "category-label": "False"}
{"substance": "CGACGTGCTCTATGTGCTG+CAGCACATGTCGCACGTCG ((((((((...((((((((+))))))))...))))))))", "category-label": "True"}
{"substance": "CGACGTGCCTCATGTGCTG+CAGCACATATGGCACGTCG (((((((((..((((((((+))))))))..)))))))))", "category-label": "False"}
{"substance": "CGACGTGCTATATGTGCTG+CAGCACATAAAGCACGTCG (((((((((.(((((((((+))))))))).)))))))))", "category-label": "False"}
{"substance": "CGACGTGCATAATGTGCTG+CAGCACATCATGCACGTCG ((((((((((.((((((((+)))))))).))))))))))", "category-label": "False"}
{"substance": "CGACGTGCACAATGTGCTG+CAGCACATACAGCACGTCG ((((((((...((((((((+))))))))...))))))))", "category-label": "True"}
{"substance": "CGACGTGCGGTATGTGCTG+CAGCACATACCGCACGTCG (((((((((((((((((((+)))))))))))))))))))", "category-label": "False"}
{"substance": "CGACGTGCGTGATGTGCTG+CAGCACATCCGGCACGTCG ((((((((..(((((((((+)))))))))..))))))))", "category-label": "False"}
{"substance": "CGACGTGCTGAATGTGCTG+CAGCACATTACGCACGTCG ((((((((..(((((((((+)))))))))..))))))))", "category-label": "False"}
{"substance": "CGACGTGCCTGATGTGCTG+CAGCACATCAAGCACGTCG ((((((((.((((((((((+)))))))))).))))))))", "category-label": "False"}
{"substance": "CGACGTGCTTGATGTGCTG+CAGCACATGATGCACGTCG ((((((((.(.((((((((+)))))))).).))))))))", "category-label": "False"}
{"substance": "CGACGTGCGCCATGTGCTG+CAGCACATCATGCACGTCG ((((((((...((((((((+))))))))...))))))))", "category-label": "True"}
{"substance": "CGACGTGCAGCATGTGCTG+CAGCACATGTTGCACGTCG (((((((((.(((((((((+))))))))).)))))))))", "category-label": "False"}
{"substance": "CGACGTGCGAGATGTGCTG+CAGCACATATGGCACGTCG ((((((((.(.((((((((+)))))))).).))))))))", "category-label": "False"}
{"substance": "CGACGTGCCTCATGTGCTG+CAGCACATTGCGCACGTCG ((((((((...((((((((+))))))))...))))))))", "category-label": "True"}
{"substance": "CGACGTGCCCGATGTGCTG+CAGCACATTCGGCACGTCG (((((((((..((((((((+))))))))..)))))))))", "category-label": "False"}

* * *

assay: melting temperature; melt of duplexes; details: sodium 0.0675 M; strand 1 µM

{"substance": "CGACGTGCGATATGTGCTG+CAGCACATTAGGCACGTCG ((((((((...((((((((+))))))))...))))))))", "Tm, °C": 50.8}
{"substance": "CGACGTGCATTATGTGCTG+CAGCACATCCTGCACGTCG (((((((((..((((((((+))))))))..)))))))))", "Tm, °C": 49.9}
{"substance": "CGACGTGCCCGATGTGCTG+CAGCACATATAGCACGTCG ((((((((...((((((((+))))))))...))))))))", "Tm, °C": 49}
{"substance": "CGACGTGCTACATGTGCTG+CAGCACATTCGGCACGTCG ((((((((...((((((((+))))))))...))))))))", "Tm, °C": 49.1}

All figures here come from the array DNA melting data of Ke et al..
